Tested on: three-dimensional cultured human skin model (EPI-606X)
Assay: Skin permeability test
Details: pH 7.4
Each entry gets false (0) if its Permeation Rate (%) stays under 30%, and true (1) if its Permeation Rate (%) is 30% or above.

{"Molecule": "NC(=O)c1ccc[n+]([C@@H]2O[C@H](COP(=O)([O-])O)[C@@H](O)[C@H]2O)c1 [Comparative Example 2, β-nicotinamide mononucleotide, reference compound]", "Tested system": "three-dimensional cultured human skin model (EPI-606X)", "Qualitative label": "false (0)"}
{"Molecule": "CCCCCCCC(=O)O[C@H]1[C@@H](O)[C@H]([n+]2cccc(C(N)=O)c2)O[C@@H]1COP(=O)([O-])O [Example 5, 3′-octanoyl-β-NMN]", "Tested system": "three-dimensional cultured human skin model (EPI-606X)", "Qualitative label": "true (1)"}
{"Molecule": "CCCCCCCCCCCC(=O)O[C@H]1[C@@H](O)[C@H]([n+]2cccc(C(N)=O)c2)O[C@@H]1COP(=O)([O-])O [Example 3, 3′-lauroyl-β-NMN]", "Tested system": "three-dimensional cultured human skin model (EPI-606X)", "Qualitative label": "true (1)"}
{"Molecule": "CCCCCC(=O)O[C@@H]1[C@H](OC(=O)CCCCC)[C@@H](COP(=O)([O-])O)O[C@H]1[n+]1cccc(C(N)=O)c1 [Example 8, 2′,3′-dihexanoyl-β-NMN]", "Tested system": "three-dimensional cultured human skin model (EPI-606X)", "Qualitative label": "true (1)"}
{"Molecule": "CCCCCCCCCCCCCCCC(=O)O[C@@H]1[C@H](OC(=O)CCCCCCCCCCCCCCC)[C@@H](COP(=O)([O-])[O-])O[C@H]1[n+]1cccc(C(N)=O)c1.[Na+] [Example 11, 2′,3′-dipalmitoyl-β-NMN sodium salt]", "Tested system": "three-dimensional cultured human skin model (EPI-606X)", "Qualitative label": "true (1)"}
{"Molecule": "CCCCCCCCCCCC(=O)O[C@@H]1[C@H](OC(=O)CCCCCCCCCCC)[C@@H](COP(=O)([O-])O)O[C@H]1[n+]1cccc(C(N)=O)c1 [Example 4, 2′,3′-dilauroyl-β-NMN]", "Tested system": "three-dimensional cultured human skin model (EPI-606X)", "Qualitative label": "true (1)"}
{"Molecule": "CCCCCC(=O)O[C@H]1[C@@H](O)[C@H]([n+]2cccc(C(N)=O)c2)O[C@@H]1COP(=O)([O-])O [Example 7, 3′-hexanoyl-β-NMN]", "Tested system": "three-dimensional cultured human skin model (EPI-606X)", "Qualitative label": "false (0)"}

* * *

Recorded Permeation Rate (%) values for a group of compounds are listed next.
Test system: three-dimensional cultured human skin model (EPI-606X)
Assay: Skin permeability test
Settings: 0.2% by weight sample solution in PBS(-), pH 7.4, 700 μL on skin model, 24 hours, 37° C.; average ± range of variation of three results

{"Compound": "CCCCCCCCCCCCCCCC(=O)O[C@@H]1[C@H](OC(=O)CCCCCCCCCCCCCCC)[C@@H](COP(=O)([O-])O)O[C@H]1[n+]1cccc(C(N)=O)c1", "Tested system": "three-dimensional cultured human skin model (EPI-606X)", "Permeation Rate (%)": 41}
{"Compound": "CCCCCCCC(=O)OC1C(COP(=O)([O-])O)OC([n+]2cccc(C(N)=O)c2)C1OC(=O)CCCCCCC (stereo not shown)", "Tested system": "three-dimensional cultured human skin model (EPI-606X)", "Permeation Rate (%)": 38}
{"Compound": "CC(=O)O[C@@H]1[C@H](OC(C)=O)[C@@H](COP(=O)([O-])O)O[C@H]1[n+]1cccc(C(N)=O)c1 [Synthesis Example 1, reference compound]", "Tested system": "three-dimensional cultured human skin model (EPI-606X)", "Permeation Rate (%)": 16}
{"Compound": "CCCCCCCCCCCCCCCC(=O)O[C@H]1[C@@H](O)[C@H]([n+]2cccc(C(N)=O)c2)O[C@@H]1COP(=O)([O-])O", "Tested system": "three-dimensional cultured human skin model (EPI-606X)", "Permeation Rate (%)": 40}
